IC50 listing for selected compounds.
- system: KRas^G12V (Homo sapiens, UniProt P01116, G12V)
- Construct: Biotinylated KRas (corresponding to amino acids 1-169, produced at Accelegan Inc.); biotin (biotinylated); purchased Accelegan Inc
- Sequence (P01116 1-169 isoform P01116-2 G12V): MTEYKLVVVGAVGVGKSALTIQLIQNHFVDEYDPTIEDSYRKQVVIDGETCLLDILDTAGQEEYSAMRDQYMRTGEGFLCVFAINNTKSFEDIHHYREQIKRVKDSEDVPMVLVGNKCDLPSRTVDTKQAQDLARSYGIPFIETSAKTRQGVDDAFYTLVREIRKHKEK
- assay-explanation: KRas binding assay (TR-FRET tracer displacement), KRas G12V
Lab book: enter the figure in nM, no units written.

## Task What does the record list as IC50 for O=C1NCC2(CCCN(c3nc(OC[C@@]45CCCN4C[C@H](F)C5)nc4c(F)c(-c5c6ccccc6cc6[nH]ncc56)ncc34)C2)N1 (stereo partly drawn) ?
## Result 67

## Task Given CCc1c(F)ccc2cc(O)cc(-c3ncc4c(NCc5cc(C(=O)N(C)C)nn5[C@H]5C[C@@H](O)C5)nc(OC[C@@]56CCCN5C[C@H](F)C6)nc4c3F)c12 , state its recorded IC50.
## Result 11

* * *

- system: KRas^G12V (Homo sapiens, UniProt P01116, G12V)
- Construct: Biotinylated KRas (corresponding to amino acids 1-169, produced at Accelegan Inc.); biotin (biotinylated); purchased Accelegan Inc
- assay-explanation: KRas binding assay (TR-FRET tracer displacement), KRas G12V
Flag rule - IC50 less than 20 nM flags y; the remaining entries get n.

Solved entries:
{"compound": "CCc1c(F)ccc2cc(O)cc(-c3ncc4c(N5CCC6(CC5)CC[S+]6[O-])nc(OC[C@@]56CCCN5C[C@H](F)C6)nc4c3F)c12 (some centres unmarked)", "system": "KRas^G12V (Homo sapiens, UniProt P01116, G12V)", "label-class": "n"}
{"compound": "CCc1c(F)ccc2cc(O)cc(-c3ncc4c(N5CCC6CCCC5C6)nc(OC[C@@]56CCCN5C[C@H](F)C6)nc4c3F)c12 (some centres unmarked)", "system": "KRas^G12V (Homo sapiens, UniProt P01116, G12V)", "label-class": "n"}
{"compound": "CCc1c(F)ccc2cc(O)cc(-c3ncc4c(N5CCCC(C6CCNC6=O)C5)nc(OC[C@@]56CCCN5C[C@H](F)C6)nc4c3F)c12 (single isomer, unassigned) [Example 617]", "system": "KRas^G12V (Homo sapiens, UniProt P01116, G12V)", "label-class": "y"}
{"compound": "CCc1c(F)ccc2cc(O)cc(-c3ncc4c(N5CC6CN(C7COC7)CC6C5)nc(OC[C@@]56CCCN5C[C@H](F)C6)nc4c3F)c12 (some centres unmarked)", "system": "KRas^G12V (Homo sapiens, UniProt P01116, G12V)", "label-class": "n"}
{"compound": "Oc1cc(-c2ncc3c(N4C[C@@H]5C[C@H](C4)[C@H](O)C5)nc(OC[C@@]45CCCN4C[C@H](F)C5)nc3c2F)c2ccc(Cl)cc2c1", "system": "KRas^G12V (Homo sapiens, UniProt P01116, G12V)", "label-class": "n"}
{"compound": "CCc1c(F)ccc2cc(O)cc(-c3ncc4c(N5CCCC6(C5)CN(S(C)(=O)=O)C6)nc(OC[C@@]56CCCN5C[C@H](F)C6)nc4c3F)c12", "system": "KRas^G12V (Homo sapiens, UniProt P01116, G12V)", "label-class": "n"}
{"compound": "CCc1c(F)ccc2cc(O)cc(-c3ncc4c(N5CC6CCC(C5)C6CO)nc(OC[C@@]56CCCN5C[C@H](F)C6)nc4c3F)c12 (some centres unmarked)", "system": "KRas^G12V (Homo sapiens, UniProt P01116, G12V)", "label-class": "y"}
{"compound": "Cc1cc2[nH]nnc2c(-c2ncc3c(N4C[C@@H]5C[C@H](C4)[C@H](O)C5)nc(OCC45CCCN4CCC5)nc3c2F)c1C", "system": "KRas^G12V (Homo sapiens, UniProt P01116, G12V)", "label-class": "n"}

## Task Please determine if CCc1c(F)ccc2cc(O)cc(-c3ncc4c(N5CCC(N6C(=O)OC7CN(C(C)=O)CC76)CC5)nc(OC[C@@]56CCCN5C[C@H](F)C6)nc4c3F)c12 (some centres unmarked) is below 20 nM in terms of IC50.
## Result n

## Task Does the reported IC50 of CCc1c(F)ccc2cc(O)cc(-c3ncc4c(N5CCCc6nc(C(=O)N(C)C)ccc6C5)nc(OC[C@@]56CCCN5C[C@H](F)C6)nc4c3F)c12 stay below 20 nM?
## Result y

## Task is_below(IC50, 20 nM) for CCc1c(F)ccc2cc(O)cc(-c3ncc4c(N5C[C@H]6CC[C@@H](C5)N6C5CC(F)(F)C5)nc(OC[C@@]56CCCN5C[C@H](F)C6)nc4c3F)c12 ?
## Result n

## Task Record O=C1NC(=O)C2CC(c3nc(OCC45CCCN4CCC5)nc4c(F)c(-c5cccc6cccc(F)c56)ncc34)=CC12 (centres unmarked) : is its IC50 strictly below 20 nM?
## Result n

## Task Field: below-cutoff. Rule: recorded IC50 strictly less than 20 nM. Subject: CCc1c(F)ccc2cc(O)cc(-c3ncc4c(N5CCC(N6C(=O)OC7CNCC76)CC5)nc(OC[C@@]56CCCN5C[C@H](F)C6)nc4c3F)c12 (some centres unmarked)
## Result n

## Task Consider O=S1(=O)NCC2(CCCN(c3nc(OCC45CCCN4CCC5)nc4c(F)c(-c5cccc6cccc(CO)c56)ncc34)C2)N1 (centres unmarked) . Does its IC50 lie strictly below 20 nM?
## Result n

## Task Lab note: confirm whether the reported IC50 for this compound is below 20 nM, equality not counting. compound: CCc1c(F)ccc2cc(O)cc(-c3ncc4c(N5CCN(C)C[C@]6(C)CCC[C@@H]56)nc(OC[C@@]56CCCN5C[C@H](F)C6)nc4c3F)c12
## Result n

## Task Check if IC50 falls below 20 nM for CCc1c(F)ccc2cc(O)cc(-c3ncc4c(NCc5cc(C(=O)N(C)C)nn5C5CCS(=O)(=O)C5)nc(OC[C@@]56CCCN5C[C@H](F)C6)nc4c3F)c12 (single isomer, unassigned) .
## Result y

## Task Below 20 nM on IC50? Entry CCc1c(F)ccc2cc(O)cc(-c3ncc4c(N5CCC[C@H](c6ccnn6C)CC5)nc(OC[C@@]56CCCN5C[C@H](F)C6)nc4c3F)c12
## Result n

## Task Would you kindly verify if IC50 of CCc1c(F)ccc2cc(O)cc(-c3ncc4c(NCc5cc(C(=O)N(C)C)nn5C[C@H]5C[C@@H](O)C5)nc(OC[C@@]56CCCN5C[C@H](F)C6)nc4c3F)c12 is strictly less than 20 nM?
## Result n

## Task Hello, I'm reviewing records and need to know if IC50 of CCc1c(F)ccc2cc(O)cc(-c3ncc4c(NC5CCONC5)nc(OC[C@@]56CCCN5C[C@H](F)C6)nc4c3F)c12 (some centres unmarked) is below 20 nM. Could you check?
## Result y

* * *

- system: KRas^G12V (Homo sapiens, UniProt P01116, G12V)
- Construct: Biotinylated KRas (corresponding to amino acids 1-169, produced at Accelegan Inc.); biotin (biotinylated); purchased Accelegan Inc
- assay-explanation: KRas binding assay (TR-FRET tracer displacement), KRas G12V
experimental-endpoint: IC50 (nM)
Unit nM implied. Number only.

Examples with their reported IC50 follow.
{"compound": "CCc1c(F)ccc2cc(O)cc(-c3ncc4c(NS(=O)(=O)C[C@H]5CNCCO5)nc(OC[C@@]56CCCN5C[C@H](F)C6)nc4c3F)c12", "readout-units": "nM", "IC50": 3790}
{"compound": "CCc1c(F)ccc2cc(O)cc(-c3ncc4c(N5CCC(C)(C)SC(C)(C)C5)nc(OC[C@@]56CCCN5C[C@H](F)C6)nc4c3F)c12", "readout-units": "nM", "IC50": 43000}
{"compound": "Cc1cc2[nH]nnc2c(-c2ncc3c(N4CCCn5nc(C(=O)N(C)C)cc5C4)nc(OCC45CCCN4CCC5)nc3c2F)c1C", "readout-units": "nM", "IC50": 743}
{"compound": "O=C1NC(=O)C2(CCCN(c3nc(OCC45CCCN4CCC5)nc4c(F)c(-c5c6ccccc6cc6[nH]ncc56)ncc34)C2)N1 (stereo not drawn)", "readout-units": "nM", "IC50": 11}
{"compound": "CCc1c(F)ccc2cc(O)cc(-c3ncc4c(N5C[C@@H]6[C@@H](C(N)=O)NC(=O)[C@@H]6C5)nc(OC[C@@]56CCCN5C[C@H](F)C6)nc4c3F)c12", "readout-units": "nM", "IC50": 68}

Then this compound:
## Task // lookup IC50 for CN(C)C(=O)c1cc2n(n1)CCCN(c1nc(OC[C@@]34CCCN3C[C@H](F)C4)nc3c(F)c(-c4c(C5CC5)c(Cl)cc5[nH]ncc45)ncc13)C2
## Result 3

Just for reference, patent US20260015350A1 is where these values come from.
